Recorded values, source PubChem BioAssay (NCI).

Give measured TGI for each item. Keep answers brief.
- Tested on: SK-MEL-2 melanoma
- EXPERIMENT: NCI tumour cell line growth inhibition, 48 h
Give bare numbers, in µM.

Use the examples below as a reference point.
N#Cc1c(N)nc2c(N=Nc3ccccc3)c(N)nn2c1Nc1ccccc1 :: 48.2
COc1cc(-c2ccc(Nc3ccccc3C(=O)O)c(OC)c2)ccc1Nc1ccccc1C(=O)O :: 58.6
Cc1cc(Br)c2nsnc2c1[N+](=O)[O-] :: 8.89
O=C1c2ccccc2-c2c1c1c(O)cccc1n2CCCc1ccccc1 :: 87.3
O=[N+]([O-])c1ccc(Oc2cccc(C(F)(F)F)c2)c([N+](=O)[O-])c1 :: 9.82
Cc1cc(N2CCN(C)CC2)nc(N(CCNc2ccnc3cc(Cl)ccc23)Cc2ccco2)n1 :: 5.58
CC1C(O)[C@@]2(OC[C@@]34C(=O)CC5(O)[C@H](CCC6Cc7nc8c(nc7C[C@]65C)CC5CC[C@@H]6C7=C[C@H]9O[C@@]%10(O[C@@](C)(CO)C[C@@H]%10O)C(C)[C@@]9(O)[C@]7(C)[C@@H](O)CC6[C@]5(C)C8)C3=CC[C@H]4C2C)OC1(C)C (stereo partly specified) :: 0.0141
CCOC(=O)c1c(SC)nc(-c2ccc(Cl)cc2)sc1=N :: 52.7

Query: I would be grateful if you could share the reported TGI for [CH3][Sn]([CH3])([CH3])[O]C(=O)C(O)c1ccccc1 (stereo unspecified) .
Reply: 4.51

====

- Tested on: ACHN renal
- EXPERIMENT: NCI tumour cell line growth inhibition, 48 h; in the data active = GI50 below about 0.43 µM; inactive = the rest
Your response should consist of one outcome taken from Y for active, N for inactive

CCc1ccc(Oc2nccc(-c3c(-c4ccc(F)cc4)ncn3C3CCNCC3)n2)cc1 :: N

Query: Name the outcome recorded for COc1cccc2c1C(=O)c1c(O)c3c(c(O)c1C2=O)C[C@@](O)(C(C)=O)C[C@@H]3OC1CC(N(C)C)C(O)C(C)O1 (some centres not stated) in the assay.
Reply: Y

Query: Name the outcome recorded for CC(=O)Nc1cc(C(c2ccccc2)c2ccccc2)cc(C(c2ccccc2)c2ccccc2)c1C in the assay.
Reply: N

Query: Name the outcome recorded for COc1ccc(C2=NNC(c3cc(Cc4ccc(O)c(C5CC(c6ccc(OC)cc6)=NN5)c4)ccc3O)C2)cc1 (configuration not stated) in the assay.
Reply: N

Query: Name the outcome recorded for Cc1ccc2c(n1)C(=O)C(Cl)=C(Nc1ccc(N3CCN(C)CC3)cc1)C2=O in the assay.
Reply: N

Query: Name the outcome recorded for O=c1[nH]cc(CO)c(=O)[nH]1 in the assay.
Reply: N

Query: Name the outcome recorded for Cc1cc(C(=O)N2CCN(C)CC2)c2c(=O)n(-c3ccccc3)c(=O)n(CC(O)CN3CCN(c4ncccn4)CC3)c2n1 (configuration not stated) in the assay.
Reply: N

====

- System: SW-620 colon
- EXPERIMENT: NCI tumour cell line growth inhibition, 48 h; in the data active means GI50 below about 0.43 µM; inactive means the rest
Your response should consist of one outcome taken from active, inactive

O=Cc1c[nH]c2ccc(-c3csc4ccccc34)cc12 :: inactive
COc1ccc(C2c3cc4c(c(OC)c3CC3OCC(=O)C32)OCO4)cc1OC (configuration not stated) :: active
O=C1c2cccc3cccc(c23)C(=O)N1CC#Cc1ccc2c3c(cccc13)C(=O)N(CCN1CCNCC1)C2=O :: inactive
Cc1cc(NS(=O)(=O)c2ccc(NC(=O)COc3ccc(-c4cc5ccccc5[nH]4)cc3)cc2)no1 :: inactive

Query: Name the outcome recorded for O=C1/C(=C\c2ccc([N+](=O)[O-])cc2)CS(=O)(=O)C/C1=C/c1ccc([N+](=O)[O-])cc1 in the assay.
Reply: active

Query: Name the outcome recorded for CCc1ccc(Oc2nccc(-c3c(-c4ccc(F)cc4)ncn3C3CCNCC3)n2)cc1 in the assay.
Reply: inactive

Query: Name the outcome recorded for CCN1CCN(CC(=O)Nc2nc3ccc(NCc4ccc(C)cc4)cc3s2)CC1 in the assay.
Reply: inactive
